- study.target: UniProtKB P08473
- experiment.summary: Inhibition of human recombinant NEP by fluorescence assay
- condition.details: read-out: Ki app
pKi: −log10 of the molar value.
Kind request: treat 7 as inclusive, so pKi at 7 or higher is MET, anything lower is NOT MET.

| smiles.entry | label.value |
| --- | --- |
| CC[C@@H](C)[C@H](S)C(=O)N[C@@H](Cc1ccc2ccccc2c1)C(=O)O | MET |
| CC[C@@H](C)[C@H](S)C(=O)N[C@@H](Cc1ccccc1-c1ccccc1)C(=O)O | NOT MET |
| CC[C@@H](C)[C@H](S)C(=O)NCC(=O)O | NOT MET |
| CC[C@@H](C)[C@H](S)C(=O)N[C@@H](Cc1cccc(-c2ccccc2)c1)C(=O)O | MET |

###

- study.target: Carboxypeptidase A1 (Homo sapiens)
- Sequence (P15085 whole entry): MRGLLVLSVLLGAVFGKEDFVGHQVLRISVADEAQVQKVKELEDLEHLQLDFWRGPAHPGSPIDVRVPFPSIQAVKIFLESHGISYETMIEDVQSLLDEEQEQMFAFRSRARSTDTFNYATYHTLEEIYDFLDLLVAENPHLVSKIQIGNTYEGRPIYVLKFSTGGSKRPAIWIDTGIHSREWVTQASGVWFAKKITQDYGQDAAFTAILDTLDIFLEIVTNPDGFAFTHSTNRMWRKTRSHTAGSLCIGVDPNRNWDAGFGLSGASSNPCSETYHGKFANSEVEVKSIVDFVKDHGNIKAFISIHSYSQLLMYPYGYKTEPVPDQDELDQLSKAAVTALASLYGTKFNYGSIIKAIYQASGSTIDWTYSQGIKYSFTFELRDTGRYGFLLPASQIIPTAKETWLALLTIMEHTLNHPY
- experiment.summary: Inhibition of human recombinant CpA by fluorescence assay
- condition.details: read-out: Ki app
Please respond with 1 when measured Ki is strictly beneath 5 µM, and with 0 in all other cases.

| smiles.entry | label.value |
| --- | --- |
| CC[C@@H](C)[C@H](S)C(=O)N[C@@H](Cc1ccccc1OCc1ccccc1)C(=O)O | 1 |
| CC[C@@H](C)[C@H](S)C(=O)N[C@@H](Cc1ccccc1)C(=O)O | 1 |
| CC[C@@H](C)[C@H](S)C(=O)N[C@@H](Cc1cccc(Oc2ccccc2)c1)C(=O)O | 0 |
| CC[C@@H](C)[C@H](S)C(=O)N[C@@H](Cc1ccccc1-c1ccccc1)C(=O)O | 0 |
| CC[C@@H](C)[C@H](S)C(=O)N[C@@H](Cc1ccc(OCc2ccc(C(F)(F)F)cc2)cc1)C(=O)O | 1 |
| CC[C@@H](C)[C@H](S)C(=O)N[C@@H](Cc1ccc2ccccc2c1)C(=O)O | 0 |
| CC[C@@H](C)[C@H](S)C(=O)N[C@@H](Cc1ccc(OCc2ccc(F)cc2)cc1)C(=O)O | 0 |

###

- study.target: Angiotensin-converting enzyme 2 (Homo sapiens, UniProt Q9BYF1)
- Sequence (Q9BYF1 whole entry): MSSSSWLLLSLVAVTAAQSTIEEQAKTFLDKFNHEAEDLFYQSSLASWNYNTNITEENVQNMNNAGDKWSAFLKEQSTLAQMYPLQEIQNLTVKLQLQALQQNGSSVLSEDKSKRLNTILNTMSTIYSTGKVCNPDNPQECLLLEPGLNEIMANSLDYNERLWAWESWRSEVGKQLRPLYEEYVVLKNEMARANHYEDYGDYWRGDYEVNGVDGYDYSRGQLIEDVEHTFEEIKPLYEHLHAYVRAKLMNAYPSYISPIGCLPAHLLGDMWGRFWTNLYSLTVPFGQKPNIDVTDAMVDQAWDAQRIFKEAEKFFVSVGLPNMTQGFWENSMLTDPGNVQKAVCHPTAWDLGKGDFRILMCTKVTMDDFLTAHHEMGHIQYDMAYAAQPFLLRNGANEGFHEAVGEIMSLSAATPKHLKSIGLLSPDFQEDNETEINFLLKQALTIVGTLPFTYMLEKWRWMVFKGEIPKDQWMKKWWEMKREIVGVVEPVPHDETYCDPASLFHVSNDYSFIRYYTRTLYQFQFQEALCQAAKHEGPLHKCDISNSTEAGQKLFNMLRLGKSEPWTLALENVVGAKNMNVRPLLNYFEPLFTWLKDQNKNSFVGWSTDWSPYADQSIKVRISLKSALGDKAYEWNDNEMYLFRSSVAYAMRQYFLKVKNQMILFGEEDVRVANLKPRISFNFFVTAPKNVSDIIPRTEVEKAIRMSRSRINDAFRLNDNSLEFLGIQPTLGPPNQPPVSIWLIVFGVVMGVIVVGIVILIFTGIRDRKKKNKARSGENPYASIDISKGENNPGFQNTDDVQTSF

| smiles.entry | IC50 |
| --- | --- |
| NCCNCCN1CC1 | 57 µM |

###

- Organism: Homo sapiens
- experiment.summary: Selectivity for human recombinant ACE2 over human recombinant NEP
Measured Selectivity ratio accompanies every entry in the list below.
measured.parameter: Selectivity ratio

| smiles.entry | measured.parameter | recorded.result |
| --- | --- | --- |
| CC[C@@H](C)[C@H](S)C(=O)N[C@@H](Cc1ccc(OCc2ccccc2)cc1)C(=O)O | Selectivity ratio | 110 |
| CC[C@@H](C)[C@H](S)C(=O)N[C@@H](Cc1ccccc1Oc1ccccc1)C(=O)O | Selectivity ratio | 200 |
| CC[C@@H](C)[C@H](S)C(=O)N[C@@H](Cc1ccccc1OCc1ccccc1)C(=O)O | Selectivity ratio | 20 |
| CC[C@@H](C)[C@H](S)C(=O)N[C@@H](Cc1cccc(OCc2ccccc2)c1)C(=O)O | Selectivity ratio | 15 |

###

- Species: Homo sapiens
- experiment.summary: Selectivity for human recombinant ACE2 over human recombinant ACE
Measured Selectivity ratio accompanies every entry in the list below.

| smiles.entry | Selectivity ratio |
| --- | --- |
| CC[C@@H](C)[C@H](S)C(=O)N[C@@H](Cc1cccc2ccccc12)C(=O)O | > 100 |
| CC[C@@H](C)[C@H](S)C(=O)N[C@@H](Cc1ccc(OCc2ccc(F)c(F)c2)cc1)C(=O)O | > 750 |
| CC[C@@H](C)[C@H](S)C(=O)N[C@@H](Cc1ccc2ccccc2c1)C(=O)O | > 100 |
| CC[C@@H](C)[C@H](S)C(=O)N[C@@H](Cc1ccc(Oc2ccccc2)cc1)C(=O)O | > 100 |

###

Measured Ki accompanies every entry in the list below.
- study.target: Neprilysin (Homo sapiens)
- Sequence (P08473 whole entry): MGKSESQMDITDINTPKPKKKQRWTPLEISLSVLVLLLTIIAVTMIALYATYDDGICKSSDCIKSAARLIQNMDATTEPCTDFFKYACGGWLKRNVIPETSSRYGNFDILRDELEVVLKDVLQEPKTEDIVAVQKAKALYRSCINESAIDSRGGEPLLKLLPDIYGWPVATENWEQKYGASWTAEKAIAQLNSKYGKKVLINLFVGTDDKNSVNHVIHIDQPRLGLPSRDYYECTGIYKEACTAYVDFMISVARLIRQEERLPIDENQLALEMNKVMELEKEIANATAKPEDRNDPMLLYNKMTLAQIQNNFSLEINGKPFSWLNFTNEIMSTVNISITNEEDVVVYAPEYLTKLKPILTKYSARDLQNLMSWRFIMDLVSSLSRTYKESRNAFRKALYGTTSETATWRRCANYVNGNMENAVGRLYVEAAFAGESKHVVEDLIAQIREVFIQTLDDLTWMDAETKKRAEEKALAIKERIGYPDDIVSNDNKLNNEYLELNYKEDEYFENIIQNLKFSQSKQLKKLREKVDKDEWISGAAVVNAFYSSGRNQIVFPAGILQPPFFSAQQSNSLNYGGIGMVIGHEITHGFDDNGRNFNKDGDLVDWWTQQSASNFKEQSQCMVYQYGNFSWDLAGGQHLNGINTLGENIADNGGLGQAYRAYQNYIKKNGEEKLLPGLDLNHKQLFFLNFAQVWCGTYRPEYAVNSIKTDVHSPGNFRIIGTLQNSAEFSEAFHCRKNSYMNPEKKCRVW
- experiment.summary: Inhibition of human recombinant NEP by fluorescence assay
- condition.details: read-out: Ki app
measured.parameter: Ki (nM)

| smiles.entry | study.target | measured.parameter | recorded.result |
| --- | --- | --- | --- |
| CC[C@@H](C)[C@H](S)C(=O)N[C@@H](Cc1ccc(O)cc1)C(=O)O | Neprilysin (Homo sapiens) | Ki | 75 |
| CC[C@@H](C)[C@H](S)C(=O)N[C@@H](Cc1ccc(OCc2ccc(F)cc2F)cc1)C(=O)O | Neprilysin (Homo sapiens) | Ki | 75 |
| CC[C@@H](C)[C@H](S)C(=O)N[C@@H](Cc1ccccc1OCc1ccccc1)C(=O)O | Neprilysin (Homo sapiens) | Ki | 120 |
